Tested on: small cell lung cancer lines
Assay: 6 day proliferation (cell growth) assay, panel of 38 small cell lung cancer lines
Type: cell-based
Conditions: 144 h; 6 day proliferation assay, panel of 38 small cell lung cancer lines; read-out: gIC50 (range over the panel)
pIC50: −log10 of the molar value.
measure: pIC50

System small cell lung cancer lines. Read-out pIC50. Item CCNC(=O)C[C@@H]1N=C(c2ccc(Cl)cc2)c2cc(OC)ccc2-n2c(C)nnc21 . Report value.
4.53 to 6.96
